Tested on: Hepatotoxicity
Conditions: Liver
Exercise: state measured HepSE_jaundice for each of the molecules provided.

Consider the molecule CC[C@H]1OC(=O)[C@H](C)C(=O)[C@H](C)[C@@H](O[C@@H]2O[C@H](C)C[C@H](N(C)C)[C@H]2O)[C@](C)(OC)C[C@@H](C)C(=O)[C@H](C)[C@H]2N(CCCCn3cnc(-c4cccnc4)c3)C(=O)O[C@]12C [TELITHROMYCIN] . State its measured HepSE_jaundice.
1

Consider the molecule O=P(O)(O)O [PHOSPHORIC ACID] . State its measured HepSE_jaundice.
0

Consider the molecule O=C(O)Cc1ccccc1Nc1c(Cl)cccc1Cl [DICLOFENAC] . State its measured HepSE_jaundice.
1

Consider the molecule Brc1c(NC2=NCCN2)ccc2nccnc12 [BRIMONIDINE] . State its measured HepSE_jaundice.
0

Consider the molecule Nc1ccc(S(N)(=O)=O)cc1 [SULFANILAMIDE] . State its measured HepSE_jaundice.
0

Consider the molecule CC(C)NCC(O)COc1ccc(CCOCC2CC2)cc1 (configuration not stated) [BETAXOLOL] . State its measured HepSE_jaundice.
0

Consider the molecule CC(=O)O[C@H]1C(=O)[C@@]2(C)[C@H]([C@H](OC(=O)c3ccccc3)[C@]3(O)C[C@H](OC(=O)[C@H](O)[C@@H](NC(=O)c4ccccc4)c4ccccc4)C(C)=C1C3(C)C)[C@]1(OC(C)=O)CO[C@@H]1C[C@@H]2O [PACLITAXEL] . State its measured HepSE_jaundice.
0

Consider the molecule CC(C)C[C@H](NC(=O)[C@H](Cc1ccccc1)NC(=O)c1cnccn1)B(O)O [BORTEZOMIB] . State its measured HepSE_jaundice.
0

Consider the molecule CCCc1cc(=O)[nH]c(=S)[nH]1 [PROPYLTHIOURACIL] . State its measured HepSE_jaundice.
1

Consider the molecule CN/C(=N/CCSCc1nc[nH]c1C)NC#N [CIMETIDINE] . State its measured HepSE_jaundice.
0

Consider the molecule Nc1ccn([C@H]2CC[C@@H](CO)O2)c(=O)n1 [ZALCITABINE] . State its measured HepSE_jaundice.
1

Consider the molecule CC(=O)O [ACETIC ACID] . State its measured HepSE_jaundice.
0

----------
Exercise: state measured HepSE_liver function tests abnormal for each of the compounds provided.
Write the value as a bare number.

Output reported HepSE_liver function tests abnormal of the compound `CC(=O)NC[C@H]1CN(c2ccc(N3CCOCC3)c(F)c2)C(=O)O1` on Hepatotoxicity.
1

Output reported HepSE_liver function tests abnormal of the compound COC(=O)C1=C(C)NC(C)=C(C(=O)OC(C)C)C1c1cccc2nonc12 (stereo not given) on Hepatotoxicity.
0

Output reported HepSE_liver function tests abnormal of the compound OC(CCN1CCCC1)(c1ccccc1)C1CCCCC1 (stereo not given) on Hepatotoxicity.
0

Output reported HepSE_liver function tests abnormal of the compound `NCCC(O)(P(=O)(O)O)P(=O)(O)O` on Hepatotoxicity.
1

Output reported HepSE_liver function tests abnormal of the compound `CC[C@@H](CO)NC(=O)[C@@H]1C=C2c3cccc4[nH]cc(c34)C[C@H]2N(C)C1` on Hepatotoxicity.
0

----------
Exercise: state measured HepSE_jaundice for each of the compounds provided.
System: Hepatotoxicity
Write the value as a bare number.

Output reported HepSE_jaundice of the compound `C1N2CN3CN1CN(C2)C3` on Hepatotoxicity.
0

Output reported HepSE_jaundice of the compound `CCN(CC)CCOc1ccc(C(=C(Cl)c2ccccc2)c2ccccc2)cc1` on Hepatotoxicity.
0

Output reported HepSE_jaundice of the compound COc1ccc(Cl)cc1C(=O)NCCc1ccc(S(=O)(=O)NC(=O)NC2CCCCC2)cc1 [GLYBURIDE] on Hepatotoxicity.
1

Output reported HepSE_jaundice of the compound `NC[C@@H]1O[C@H](O[C@H]2[C@@H](O)[C@H](O[C@@H]3[C@@H](O)[C@H](N)C[C@H](N)[C@H]3O[C@H]3O[C@H](CO)[C@@H](O)[C@H](O)[C@H]3N)O[C@@H]2CO)[C@H](N)[C@@H](O)[C@@H]1O` on Hepatotoxicity.
0

Output reported HepSE_jaundice of the compound COC(=O)C(c1ccccc1)C1CCCCN1 (stereo unspecified) [METHYLPHENIDATE] on Hepatotoxicity.
0

Output reported HepSE_jaundice of the compound C#CC1(O)CCC2C3CCC4=CC(=O)CCC4C3C(=C)CC21CC (stereo unspecified) on Hepatotoxicity.
0

Output reported HepSE_jaundice of the compound `CCn1cc(C(=O)O)c(=O)c2ccc(C)nc21` on Hepatotoxicity.
0

Output reported HepSE_jaundice of the compound `C[N+]1(C)[C@@H]2C[C@@H](OC(=O)C(O)(c3cccs3)c3cccs3)C[C@H]1[C@@H]1O[C@@H]12` on Hepatotoxicity.
0

Output reported HepSE_jaundice of the compound `CCCCC(=O)OCC(=O)[C@]1(O)Cc2c(O)c3c(c(O)c2[C@@H](O[C@H]2C[C@H](NC(=O)C(F)(F)F)[C@H](O)[C@H](C)O2)C1)C(=O)c1c(OC)cccc1C3=O` on Hepatotoxicity.
0

Output reported HepSE_jaundice of the compound COc1ccc(OC)c(C(O)CNC(=O)CN)c1 (stereo unspecified) on Hepatotoxicity.
0

Output reported HepSE_jaundice of the compound CC(C)(Oc1ccc(CCNC(=O)c2ccc(Cl)cc2)cc1)C(=O)O [BEZAFIBRATE] on Hepatotoxicity.
0

Output reported HepSE_jaundice of the compound `Nc1ccn([C@@H]2CS[C@H](CO)O2)c(=O)n1` on Hepatotoxicity.
1

Output reported HepSE_jaundice of the compound `CC(=O)N[C@H]1[C@H](OCCCO)OC(C(=O)O)=C[C@@H]1O` on Hepatotoxicity.
0

Output reported HepSE_jaundice of the compound `COc1cccc2c1C(=O)c1c(O)c3c(c(O)c1C2=O)C[C@@](O)(C(=O)CO)C[C@@H]3O[C@H]1C[C@H](N)[C@H](O)[C@H](C)O1` on Hepatotoxicity.
1

Output reported HepSE_jaundice of the compound CN1C2CCCC1CC(NC(=O)c1nn(C)c3ccccc13)C2 (stereo unspecified) on Hepatotoxicity.
1

Output reported HepSE_jaundice of the compound CCc1ccc(CCOc2ccc(CC3SC(=O)NC3=O)cc2)nc1 (stereo unspecified) on Hepatotoxicity.
0

----------
Exercise: state measured HepSE_cholecystitis for each of the molecules provided.
Write the value as a bare number.

Output reported HepSE_cholecystitis of the molecule `Cc1onc(-c2ccccc2)c1-c1ccc(S(N)(=O)=O)cc1` on Hepatotoxicity.
0

Output reported HepSE_cholecystitis of the molecule `Nc1nc(NC2CC2)c2ncn([C@H]3C=C[C@@H](CO)C3)c2n1` on Hepatotoxicity.
0

Output reported HepSE_cholecystitis of the molecule `COCc1c(C(C)C)nc(C(C)C)c(/C=C/[C@@H](O)C[C@@H](O)CC(=O)O)c1-c1ccc(F)cc1` on Hepatotoxicity.
0

Output reported HepSE_cholecystitis of the molecule `C1N2CN3CN1CN(C2)C3` on Hepatotoxicity.
0

Output reported HepSE_cholecystitis of the molecule `C[C@]12CCC(=O)C=C1CC[C@H]1[C@@H]3CC[C@](O)(C(=O)CO)[C@@]3(C)C[C@H](O)[C@@]12F` on Hepatotoxicity.
0

Output reported HepSE_cholecystitis of the molecule CC(C)C(=O)OCC(=O)[C@@]12O[C@H](C3CCCCC3)O[C@@H]1C[C@H]1[C@@H]3CCC4=CC(=O)C=C[C@]4(C)[C@H]3[C@@H](O)C[C@@]12C [CICLESONIDE] on Hepatotoxicity.
0

Output reported HepSE_cholecystitis of the molecule `O=C(O[C@@H]1C[C@@H]2C[C@H]3C[C@H](C1)N2CC3=O)c1c[nH]c2ccccc12` on Hepatotoxicity.
0

Output reported HepSE_cholecystitis of the molecule `Cc1ccc(N(CC2=NCCN2)c2cccc(O)c2)cc1` on Hepatotoxicity.
0

Output reported HepSE_cholecystitis of the molecule `N=C(N)NC(=O)Cc1c(Cl)cccc1Cl` on Hepatotoxicity.
0

Output reported HepSE_cholecystitis of the molecule CC(C)=CCN1CC[C@]2(C)c3cc(O)ccc3C[C@H]1[C@H]2C [(+)-PENTAZOCINE] on Hepatotoxicity.
0

Output reported HepSE_cholecystitis of the molecule `CN1CCC[C@@H]1Cc1c[nH]c2ccc(CCS(=O)(=O)c3ccccc3)cc12` on Hepatotoxicity.
0

Output reported HepSE_cholecystitis of the molecule `C[C@H]1C[C@@H]2[C@H]([C@@H](O)C[C@@]3(C)[C@H]2CC[C@]3(O)C(=O)CO)[C@@]2(C)C=CC(=O)C=C12` on Hepatotoxicity.
0

Output reported HepSE_cholecystitis of the molecule `O=P(O)(O)C(O)(Cc1cccnc1)P(=O)(O)O` on Hepatotoxicity.
0

Output reported HepSE_cholecystitis of the molecule `CCOC(=O)c1ncn2c1CN(C)C(=O)c1cc(F)ccc1-2` on Hepatotoxicity.
0

Output reported HepSE_cholecystitis of the molecule CC(=O)O.NCc1ccc(S(N)(=O)=O)cc1 [MAFENIDE ACETATE] on Hepatotoxicity.
0

Output reported HepSE_cholecystitis of the molecule `Cc1c(O)cccc1C(=O)N[C@@H](CSc1ccccc1)[C@H](O)CN1C[C@H]2CCCC[C@H]2C[C@H]1C(=O)NC(C)(C)C` on Hepatotoxicity.
0

Output reported HepSE_cholecystitis of the molecule Cc1c(C)c2c(c(C)c1O)CCC(C)(COc1ccc(CC3SC(=O)NC3=O)cc1)O2 (configuration not stated) on Hepatotoxicity.
0
